- System: primary human NK cells
- experiment-notes: NK cell activation assessed by cytokine secretion (coculture with K562 NucRed target cells)
- Format: cell-based
- condition-notes: K562, NK cells cocultured with K562 NucRed, 1:1 E/T, 0.625 μM compound, read-out: IFNγ secretion, fold change over baseline

{"molecule": "Cc1n[nH]c(C)c1-c1cc2c(c(C(F)(F)F)c1)CN(c1cccc(C3(Cc4nncn4C)COC3)c1)C2=O [Compound 385]", "measured-target": "primary human NK cells", "fold induction at 0.625 µM": "1.01 to 2"}
{"molecule": "Cn1cnnc1CC1(c2cccc(NC(=O)c3nc4c(C(F)(F)F)cccc4[nH]3)c2)COC1 [Compound 335]", "measured-target": "primary human NK cells", "fold induction at 0.625 µM": "1.01 to 2"}
{"molecule": "Cn1cnnc1[C@@H]1C[C@@H]1c1cccc(N2Cc3c(ccnc3C(F)(F)F)C2=O)c1 [Compound 369]", "measured-target": "primary human NK cells", "fold induction at 0.625 µM": "< 1"}
{"molecule": "Cc1cc(C(=O)Nc2cccc([C@@H](C)Cc3nncn3C)c2)nc(C2CC2)n1 [Compound 325]", "measured-target": "primary human NK cells", "fold induction at 0.625 µM": "1.01 to 2"}
{"molecule": "Cn1cnnc1CC1(c2cccc(NC(=O)c3cc(CN4CCC5(CC5)C4)cc(C4CC4)n3)c2)COC1 [Compound 519]", "measured-target": "primary human NK cells", "fold induction at 0.625 µM": "> 5"}
{"molecule": "COC1CN(Cc2cc3c(c(C(F)(F)F)c2)CN(c2cccc([C@@](C)(F)C(F)(F)c4nncn4C)c2)C3=O)C1 [Compound 452]", "measured-target": "primary human NK cells", "fold induction at 0.625 µM": "> 5"}
{"molecule": "C[C@H](c1cc2c(c(C(F)(F)F)c1)CN(c1cccc(C3(Cc4nncn4C)COC3)c1)C2=O)N1CC[C@H](F)C1 [Compound 413]", "measured-target": "primary human NK cells", "fold induction at 0.625 µM": "2.01 to 5"}

// provenance: patent US20220324835A1
